Kindly state MIC Staphylococcus aureus (GC 3051) for each of the entries shown.
System: Staphylococcus sp.
Assay: In vitro antibacterial evaluation: minimum inhibitory concentration (MIC), broth dilution method
Assay type: cell-based
Conditions: broth dilution, 5×10^5 CFU/mL, 18 hours at 35° C.
Quick note: give the figure in µg/mL, leave out the unit.

Which MIC Staphylococcus aureus (GC 3051) is reported for this molecule? CC(C)=CCCC(C)=CCOc1ccc(C2OCC3OC(OC4C(CO)OC(Oc5ccc(CC6NC(=O)C(C(C)c7ccccc7)NC(=O)CNC(=O)C(CO)NC(=O)C(C(O)C7CNC(=N)N7C7OC(CO)C(O)C(O)C7O)NC(=O)C(C(O)C7CNC(=N)N7)NC6=O)cc5)C(O)C4O)C(O)C(O)C3O2)cc1 (stereo not drawn)
2

Entry CC(c1ccccc1)C1NC(=O)CNC(=O)C(CO)NC(=O)C(C(O)C2CNC(=N)N2C2OC(CO)C(O)C(O)C2O)NC(=O)C(C(O)C2CNC(=N)N2)NC(=O)C(Cc2ccc(OC3OC(CO)C(OC4OC5COC(c6ccc(S(C)(=O)=O)cc6)OC5C(O)C4O)C(O)C3O)cc2)NC1=O (stereo not drawn) : reported MIC Staphylococcus aureus (GC 3051) = ?
16

Suppose we examine the molecule CC(c1ccccc1)C1NC(=O)CNC(=O)C(CO)NC(=O)C(C(O)C2CNC(=N)N2C2OC(CO)C(O)C(O)C2O)NC(=O)C(C(O)C2CNC(=N)N2)NC(=O)C(Cc2ccc(OC3OC(CO)C(OC4OC5COC(c6ccc(C=Cc7ccccc7)cc6)OC5C(O)C4O)C(O)C3O)cc2)NC1=O (stereo not drawn) ; what MIC Staphylococcus aureus (GC 3051) value has been reported?
4

---

System: Streptococcus sp.
Test: In vitro antibacterial evaluation: minimum inhibitory concentration (MIC), broth dilution method
Assay type: cell-based
Conditions: broth dilution, inoculum 5×10^5 CFU/mL, 18 hours at 35° C.
experimental_readout: MIC Streptococcus pneumoniae (GC 1894) (µg/mL)
Please state the figure in µg/mL; there is no need to write the unit.

Name the reported MIC Streptococcus pneumoniae (GC 1894) value associated with the compound COc1ccc(COCC2OC(OC3C(CO)OC(Oc4ccc(CC5NC(=O)C(C(C)c6ccccc6)NC(=O)CNC(=O)C(CO)NC(=O)C(C(O)C6CNC(=N)N6C6OC(CO)C(O)C(O)C6O)NC(=O)C(C(O)C6CNC(=N)N6)NC5=O)cc4)C(O)C3O)C(O)C(O)C2O)cc1 (stereo not shown)
0.5

Suppose we examine the compound COc1ccc2cc(C3OCC4OC(OC5C(CO)OC(Oc6ccc(CC7NC(=O)C(C(C)c8ccccc8)NC(=O)CNC(=O)C(CO)NC(=O)C(CC8CNC(=N)N8C8OC(CO)C(O)C(O)C8O)NC(=O)C(CC8CNC(=N)N8)NC7=O)cc6)C(O)C5O)C(O)C(O)C4O3)ccc2c1 (stereo not shown) ; what MIC Streptococcus pneumoniae (GC 1894) value has been reported?
4

Please report the recorded MIC Streptococcus pneumoniae (GC 1894) for CC(c1ccccc1)C1NC(=O)CNC(=O)C(CO)NC(=O)C(C(O)C2CNC(=N)N2C2OC(CO)C(O)C(O)C2O)NC(=O)C(C(O)C2CNC(=N)N2)NC(=O)C(Cc2ccc(OC3OC(CO)C(OC4OC5COC6(CCCCC6)OC5C(O)C4O)C(O)C3O)cc2)NC1=O (stereo not shown) .
0.12

---

For each record, write down the corresponding MIC Streptococcus pneumoniae (GC 4565).
System: Streptococcus sp.
Assay: In vitro antibacterial evaluation: minimum inhibitory concentration (MIC), broth dilution method
Format: cell-based
Conditions: strain GC 4565
Return type: number; implicit unit µg/mL.

Streptococcus sp. / MIC Streptococcus pneumoniae (GC 4565) / CC(c1ccccc1)C1NC(=O)CNC(=O)C(CO)NC(=O)C(C(O)C2CNC(=N)N2C2OC(CO)C(O)C(O)C2O)NC(=O)C(C(O)C2CNC(=N)N2)NC(=O)C(Cc2ccc(OC3OC(CO)C(OC4OC5COC(c6ccc(S(C)(=O)=O)cc6)OC5C(O)C4O)C(O)C3O)cc2)NC1=O (stereo not shown) : value?
4

# returns recorded MIC Streptococcus pneumoniae (GC 4565) (system: Streptococcus sp.) for CCOc1cc(C2OCC3OC(OC4C(CO)OC(Oc5ccc(CC6NC(=O)C(C(C)c7ccccc7)NC(=O)CNC(=O)C(CO)NC(=O)C(C(O)C7CNC(=N)N7C7OC(CO)C(O)C(O)C7O)NC(=O)C(C(O)C7CNC(=N)N7)NC6=O)cc5)C(O)C4O)C(O)C(O)C3O2)ccc1[N+](=O)[O-] (stereo not shown)
1

Which MIC Streptococcus pneumoniae (GC 4565) is reported with Streptococcus sp. for this entry: CC(C)=CCOc1cccc(C2OCC3OC(OC4C(CO)OC(Oc5ccc(CC6NC(=O)C(C(C)c7ccccc7)NC(=O)CNC(=O)C(CO)NC(=O)C(C(O)C7CNC(=N)N7C7OC(CO)C(O)C(O)C7O)NC(=O)C(C(O)C7CNC(=N)N7)NC6=O)cc5)C(O)C4O)C(O)C(O)C3O2)c1 (stereo not shown) ?
0.12

Checklist item: MIC Streptococcus pneumoniae (GC 4565) tested on Streptococcus sp., entry CC(c1ccccc1)C1NC(=O)CNC(=O)C(CO)NC(=O)C(C(O)C2CN(Cc3ccc(-c4ccccc4)cc3)C(=N)N2C2OC(CO)C(O)C(O)C2O)NC(=O)C(C(O)C2CNC(=NCc3ccc(-c4ccccc4)cc3)N2Cc2ccc(-c3ccccc3)cc2)NC(=O)C(Cc2ccc(OC3OC(CO)C(OC4OC(CO)C(O)C(O)C4O)C(O)C3O)cc2)NC1=O (stereo not shown) , value?
64

Lab note: need MIC Streptococcus pneumoniae (GC 4565) with Streptococcus sp. for entry COc1cc(OC)cc(C2OC3C(OC4C(CO)OC(Oc5ccc(CC6NC(=O)C(C(C)c7ccccc7)NC(=O)CNC(=O)C(CO)NC(=O)C(C(O)C7CNC(=N)N7C7OC(CO)C(O)C(O)C7O)NC(=O)C(C(O)C7CNC(=N)N7)NC6=O)cc5)C(O)C4O)OC(CO)C(O)C3O2)c1 (stereo not shown) [Example 150a] , please look it up.
16

# returns recorded MIC Streptococcus pneumoniae (GC 4565) (system: Streptococcus sp.) for COc1cc(C2OCC3OC(OC4C(CO)OC(Oc5ccc(CC6NC(=O)C(C(C)c7ccccc7)NC(=O)CNC(=O)C(CO)NC(=O)C(C(O)C7CNC(=N)N7C7OC(CO)C(O)C(O)C7O)NC(=O)C(C(O)C7CNC(=N)N7)NC6=O)cc5)C(O)C4O)C(O)C(O)C3O2)cc([N+](=O)[O-])c1O (stereo not shown)
8

// lookup MIC Streptococcus pneumoniae (GC 4565) | system=Streptococcus sp. | key= COc1cccc(C2OC3C(OC4C(CO)OC(Oc5ccc(CC6NC(=O)C(C(C)c7ccccc7)NC(=O)CNC(=O)C(CO)NC(=O)C(C(O)C7CNC(=N)N7C7OC(CO)C(O)C(O)C7O)NC(=O)C(C(O)C7CNC(=N)N7)NC6=O)cc5)C(O)C4O)OC(CO)C(O)C3O2)c1 (single isomer, unassigned) [Example 137b]
2

---

Assign MIC Staphylococcus aureus (ATCC 29213) to each entry below.
Test system: Staphylococcus sp.
Test: In vitro antibacterial evaluation: minimum inhibitory concentration (MIC), broth dilution method
Type: cell-based
Details: Staphylococcus aureus (ATCC 29213); broth dilution, 18 hours at 35° C.
Numbered stars: 1 amine (or outer) side, 2 acyl side, 3 side chain; on linkers, the order of the positions; unused ones are H or OH. Square brackets hold non-standard residues; d marks the D form. Peptide text beside a SMILES is read from it. * marks the point of attachment. ξ: configuration not given here. X1 = N=C1NCC(C(O)C(N[*:1])C(=O)[*:2])N1C1OC(CO)C(O)C(O)C1O; ξEnduracididine(βξ-OH,4'ξ) = N=C1NCC(C(O)C(N)C(=O)O)N1; X2 = OCC1OC(OC2C(CO)OC(*)C(O)C2O)C(O)C(O)C1O; Cha = N[CH](CC1CCCCC1)C(=O)O
The answer is to be given in µg/mL; state only the numeric part.

Can you look up the measured MIC Staphylococcus aureus (ATCC 29213) of CC(C)CC(=O)OC1C(OC2C(CO)OC(Oc3ccc(CC4NC(=O)C(C(C)c5cccs5)NC(=O)CNC(=O)C(CO)NC(=O)C(C(O)C5CNC(=N)N5C5OC(CO)C(O)C(O)C5O)NC(=O)C(C(O)C5CNC(=N)N5)NC4=O)cc3)C(O)C2O)OC(CO)C(O)C1O (centres unmarked) [Example 265a] for me?
16

Which measured MIC Staphylococcus aureus (ATCC 29213) value corresponds to N=C1NCC(C(O)C2NC(=O)C(Cc3ccc(OC4OC(CO)C(OC5OC(CO)C(O)C(O)C5O)C(O)C4O)cc3)NC(=O)C(CC3CCCCC3)NC(=O)CNC(=O)C(CO)NC(=O)C(C(O)C3CNC(=N)N3C3OC(CO)C(O)C(O)C3O)NC2=O)N1 (stereo not drawn) [Example 263] (cyclo(G[Cha]Y(X2)[ξEnduracididine(βξ-OH,4'ξ)][X1]S); configuration not given here) ?
64
